Origin of measurements: the supplement of paper PMC8967900

test system: P12-ICHIKAWA; assay: selective drug sensitivity score (sDSS, relative to normal bone marrow) (sDSS (score)); higher = more potent and effective on the cell line relative to normal bone marrow cells; conditions: 72 h;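 also: ALL cell lines in 384-well plates, five doses spanning 10,000-fold, each plate scaled between vehicle and 100 µmol/L benzalkonium chloride controls, sDSS an adapted area-under-curve metric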
Outcome: T for selective drug sensitivity score of at least 1; F for anything lower.

> print(dat)
                                   molecule  labelvalue
1  CCCN(CCC)C(=O)C1=Cc2ccc(-c3ccc(C(=O)N4CCCC4)cc3)cc2N=C(N)C1 [Motolimod] (top concentration 10000 nM)           F
2  Nc1ncn([C@H]2C[C@H](O)[C@@H](CO)O2)c(=O)n1 [Decitabine] (top concentration 10000 nM)           T
3  COc1ccc(Cn2ccc3ccc(C(=O)NO)cc32)cc1 (top concentration 10000 nM)           T
4  Sc1ncnc2nc[nH]c12 [Mercaptopurine] (top concentration 10000 nM)           T
5  C#Cc1cccc(Nc2ncnc3cc4c(cc23)OCCOCCOCCO4)c1 [Icotinib] (top concentration 10000 nM)           F
6  CCc1cnn2c(NCc3ccc[n+]([O-])c3)cc(N3CCCC[C@H]3CCO)nc12 [Dinaciclib] (top concentration 1000 nM)           F
7  Cc1ncc(-c2ccnc(Nc3ccc(S(C)(=O)=O)cc3)n2)n1C(C)C [AZD-5438] (top concentration 10000 nM)           F
